- Tested on: Bacillus subtilis
- Test: Antibacterial activity against Bacillus subtilis ATCC 23857 at <50 ug/ml measured every 1 hr
- Type: functional, organism-based
Active and inactive are the calls of the source. No cut-off for these calls is given here.
Parameter Measured: Activity

INSERT INTO assay_data (structure_string, study_target, reading) VALUES
  ('CCCCCCC[C@@H](O)C[C@H](O)Cc1cc(O)c(C)c(=O)o1', 'Bacillus subtilis', 'inactive'),
  ('O=C(O)c1c(O)cc2c(c1O)CO[C@@H](CCCCCCCO)C2', 'Bacillus subtilis', 'inactive'),
  ('Cc1c(O)cc(C[C@@H](O)CCCCCCCO)oc1=O', 'Bacillus subtilis', 'inactive'),
  ('Cc1c(O)cc(C[C@@H](O)C[C@H](O)CCCCCCCO)oc1=O', 'Bacillus subtilis', 'inactive'),
  ('C[C@@H](O)CCCCC[C@H]1Cc2cc(O)c(C(=O)O)c(O)c2CO1', 'Bacillus subtilis', 'inactive'),
  ('C[C@@H](O)CCCCC[C@H]1Cc2cc(O)c(C(=O)O)c(O)c2[C@@H](O)O1', 'Bacillus subtilis', 'inactive'),
  ('O=C(O)c1c(O)cc2c(c1O)[C@@H](O)O[C@@H](CCCCCCCO)C2', 'Bacillus subtilis', 'inactive');
